Where these numbers come from: patent US20230165846A1

biological target: GLP-1 Receptor (Homo sapiens, UniProt P43220); experiment: GLP-1R agonist cAMP stimulation assay, Method 2 (HDB HEK293/GLP1R/CRE-LUC, Cisbio cAMP dynamic 2 kit); assay type: cell-based; conditions: HEK293/GLP1R/CRE-LUC cells (HD Biosciences); 30 min at 37° C.; 0.5 mM IBMX, 0.1% BSA; geometric mean where n>=2; read-out: GLP1R cAMP Stimulation DR: EC50 (nM) Method 2 (HDB)
Sequence (P43220 24-463): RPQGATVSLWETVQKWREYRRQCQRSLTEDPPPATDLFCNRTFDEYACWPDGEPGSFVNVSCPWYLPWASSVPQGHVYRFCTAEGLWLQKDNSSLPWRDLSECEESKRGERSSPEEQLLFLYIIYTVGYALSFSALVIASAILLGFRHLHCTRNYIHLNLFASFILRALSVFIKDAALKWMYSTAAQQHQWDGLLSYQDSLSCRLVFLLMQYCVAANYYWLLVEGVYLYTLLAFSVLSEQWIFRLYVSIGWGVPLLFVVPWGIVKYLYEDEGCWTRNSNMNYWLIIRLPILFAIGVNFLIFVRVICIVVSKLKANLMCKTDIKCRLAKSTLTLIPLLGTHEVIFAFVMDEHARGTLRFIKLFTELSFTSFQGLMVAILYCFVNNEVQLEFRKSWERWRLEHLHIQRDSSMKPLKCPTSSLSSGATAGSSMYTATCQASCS
Hi there, I'd appreciate the recorded log10 of EC50 for every entry that follows.
Response schema: value (number) is log10 of EC50 in units of nM.

Entry CC(C)(C#N)Cn1c(CC2CC=C(c3ncc(F)c(OCc4ccc(C#N)cc4F)n3)CC2)nc2ccc(C(=O)O)nc21 (stereo not shown) : reported log10 of EC50 = ? -0.41

Repeat with N#Cc1ccc(COc2cccc(-c3ccn(Cc4nc5ccc(C(=O)O)nc5n4C[C@@H]4CCO4)c(=O)c3)n2)c(F)c1 [Compound 106aw] 0.61

Repeat with O=C(O)c1ccc2nc(CC3CC=C(c4ncc(F)c(OCc5ccc(Cl)cn5)n4)CC3)n(C[C@@H]3CCO3)c2n1 (stereo partly shown) [Compound 120a] -0.92

Repeat with O=C(O)c1ccc2nc(Cn3ccc(-c4cccc(OCc5ccc(Cl)cc5F)n4)cc3=O)n(C[C@@H]3CCO3)c2c1 [Compound 107aw] -0.72

Repeat with CC(C)(C#N)Cn1c(CC2CC=C(c3ncc(F)c(OCc4ccc(Cl)cc4F)n3)CC2)nc2ccc(C(=O)O)nc21 (stereo not shown) -0.43

Repeat with O=C(O)c1ccc2nc(COc3cc(-c4cccc(OCc5ccc(Cl)cc5F)n4)c(F)cn3)n(C[C@@H]3CCO3)c2n1 [Compound 109aw] 1.00

Repeat with O=C(O)c1ccc2nc(CC3CC=C(c4cccc(OCc5ccc(Cl)cc5F)n4)CC3)n(C[C@@H]3CCO3)c2n1 (single isomer, unassigned) [Compound 102b] -2.15

Repeat with N#Cc1ccc(COc2cccc(C3=CCC(Cc4nc5ccc(C(=O)O)nc5n4C[C@@H]4CCO4)CC3)n2)c(F)c1 (single isomer, unassigned) [Compound 101b] -2.06

Repeat with N#Cc1ccc(COc2nc(C3=CCC(Cc4nc5ccc(C(=O)O)nc5n4C[C@@H]4CCO4)CC3)ccc2F)c(F)c1 (stereo partly shown) [Compound 115a] -1.74

Repeat with O=C(O)c1ccc2nc(Cn3ccc(-c4cccc(OCc5ccc(Cl)cc5F)c4)cc3=O)n(C[C@@H]3CCO3)c2n1 [Compound 108aw] 0.76

Repeat with O=C(O)c1ccc2nc(CC3CC=C(c4ncc(F)c(OCc5ccc(Cl)cc5F)n4)CC3)n(C[C@@H]3CCO3)c2n1 (single isomer, unassigned) [Compound 114c] -0.89

Repeat with O=C(O)c1ccc2nc(CC3CC=C(c4cccc(OCc5ccc(Cl)cn5)n4)CC3)n(C[C@@H]3CCO3)c2n1 (stereo partly shown) [Compound 121a] -1.57

Repeat with O=C(O)c1ccc2nc(CN3CC=C(c4cccc(OCc5ccc(Cl)cc5F)n4)CC3)n(C[C@@H]3CCO3)c2n1 [Compound 110a] -2.13

---

target: GLP-1 Receptor (Homo sapiens); assay: GLP-1R agonist cAMP stimulation assay, Method 1 (DiscoverX CHO-K1, enzyme fragment complementation); assay type: cell-based; details: CHO-K1 cell line (DiscoverX) stably expressing GLP-1 Receptor; incubation 30 or 60 min at 37° C.; geometric mean where n>=2; read-out: GLP1R cAMP Stimulation DR: EC50 (nM) Method 1
parameter: EC50 (nM)
// return numeric value only (unit: nM, not printed)

Entry N#Cc1ccc(COc2nc(C3=CCN(Cc4nc5ccc(C(=O)O)nc5n4C[C@@H]4CCO4)CC3)cs2)c(F)c1 [Compound 112a] : reported EC50 = ? 0.26

Repeat with O=C(O)c1ccc2nc(Cc3ccc(-c4nccc(OCc5ccc(Cl)cc5F)n4)cc3)n(C[C@@H]3CCO3)c2n1 [Compound 101aw] 0.069

Repeat with O=C(O)c1ccc2nc(CN3CC=C(c4csc(OCc5ccc(Cl)cc5F)n4)CC3)n(C[C@@H]3CCO3)c2n1 [Compound 111a] 0.18

Repeat with N#Cc1ccc(COc2cccc(-c3ccn(Cc4nc5ccc(C(=O)O)nc5n4C[C@@H]4CCO4)c(=O)c3)n2)c(F)c1 [Compound 106aw] 1.3

Repeat with O=C(O)c1ccc2nc(COc3cc(-c4cccc(OCc5ccc(Cl)cc5F)n4)c(F)cn3)n(C[C@@H]3CCO3)c2n1 [Compound 109aw] 4.8

Repeat with Cc1c(-c2cccc(OCc3ccc(Cl)cc3F)n2)ccn(Cc2nc3ccc(C(=O)O)nc3n2C[C@@H]2CCO2)c1=O [Compound 105aw] 11

Repeat with O=C(O)c1ccc2nc(Cn3ccc(-c4cccc(OCc5ccc(Cl)cc5F)c4)cc3=O)n(C[C@@H]3CCO3)c2n1 [Compound 108aw] 5.9

Repeat with O=C(O)c1ccc2nc(Cc3ccc(-c4nccc(OCc5ccccc5)n4)cc3)n(C[C@@H]3CCO3)c2n1 [Compound 102aw] 2.2

Repeat with O=C(O)c1ccc2nc(Cn3ccc(-c4cccc(OCc5ccc(Cl)cc5F)n4)cc3=O)n(C[C@@H]3CCO3)c2n1 [Compound 103aw] 0.38
